Data credit: paper PMC7096168

# STUDY SYSTEM: T1, dCTCF zinc finger cluster (UniProt Q9VS55 294-614)
# T1 sequence: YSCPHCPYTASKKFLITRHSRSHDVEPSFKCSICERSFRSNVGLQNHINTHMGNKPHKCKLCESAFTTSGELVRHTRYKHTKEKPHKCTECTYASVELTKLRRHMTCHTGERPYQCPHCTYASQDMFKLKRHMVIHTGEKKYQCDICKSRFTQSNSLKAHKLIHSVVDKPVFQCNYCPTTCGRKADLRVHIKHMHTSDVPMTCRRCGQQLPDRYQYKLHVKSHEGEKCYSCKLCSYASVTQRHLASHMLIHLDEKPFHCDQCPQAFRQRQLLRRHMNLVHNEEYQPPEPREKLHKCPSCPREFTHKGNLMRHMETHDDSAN
# ASSAY OVERVIEW: EMSA
OUTCOME MEASURE: binding result

Respond only with binding result recorded for F2177Δ21 (dsDNA) DNA 1: ATGCCTAAAAGTATGCAGAAATTTGTTCAACAAGTCTGCTTATGTGCACCCTCTCGCGATCGGTGGCATAACCAATCGAGGATTCAGCTCTTGAGCTACCTGCAAGCTTAAGGGCGACATCTATATCTCGCATAGTGTGCAGAACTGCTTGTTCCTAGTCAC DNA 2: GTGACTAGGAACAAGCAGTTCTGCACACTATGCGAGATATAGATGTCGCCCTTAAGCTTGCAGGTAGCTCAAGAGCTGAATCCTCGATTGGTTATGCCACCGATCGCGAGAGGGTGCACATAAGCAGACTTGTTGAACAAATTTCTGCATACTTTTAGGCAT
binds
